B1: FAM189A2 (parent)
chain: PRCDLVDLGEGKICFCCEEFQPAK

Variants of: B1
test_summary: protein stability index of a GFP-peptide fusion (GPS, HEK-293T) (PSI 1-6); higher = more stable;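 also: lentivirally expressed fusions sorted by FACS into six bins by GFP to DsRed ratio, PSI derived from sequencing read proportions per bin multiplied by bin number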
details: c terminus: a fixed tail appended
Classify by measured protein stability index: Y if it is equal to or exceeds 3, N if it is smaller.

Completed entries (count: 5):
{"columns": ["mutant", "class"],
 "data": [
  ["K24A", "N"],
  ["C17N", "Y"],
  ["P1N", "Y"],
  ["D4N", "Y"],
  ["K12H", "Y"]
]}

Q) Is protein stability index at least 3? Consider R2P
A) Y

Q) Another variant to look at: K24W
A) N

Q) Another variant to look at: E18D
A) N

Q) Another variant to look at: R2K
A) N

Q) Another variant to look at: F15E
A) Y

Q) Another variant to look at: C16Y
A) N

Q) Another variant to look at: R2V
A) N
